# testSystem: Sho1, P40073
# Sequence (P40073 287-367): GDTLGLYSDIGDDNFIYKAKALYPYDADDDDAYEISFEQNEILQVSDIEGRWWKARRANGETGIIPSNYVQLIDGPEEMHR
# testProtocol: SPOT array
# assayConditions: median of control spots 1148
readoutKind: SPOT intensity

binder | reportedMeasurement
HAPPLPPTAPPPPSL | 0

1. YVRRRPRVRLEPLLS
2. ISNFVPPNLPMRRFK
Field: entry with larger SPOT intensity (options 1 / 2 ). Identify your pick by its label.
1
(1: 102, 2: 65)
